Molecular target: FLT3 kinase (Homo sapiens, UniProt P36888)
Construct: purchased SignalChem
Test: FLT3 kinase assay (AlphaScreen)
Type: biochemical
Conditions: read-out: Ranking of IC50 values, FLT3
Readout label: IC50

Field: example entries. Status: answers known.
1. C[C@@H]1CN(Cc2cccc(-c3cc4c(s3)Cc3c(-c5ccc6cnn(C)c6c5)n[nH]c3-4)c2)C[C@H](C)O1
1 to 10 nM
2. Cn1ncc2ccc(-c3n[nH]c4c3Cc3sc(-c5ccc(CN6CCOCC6)cn5)cc3-4)cc21
< 1 nM

Moving on to the next compound.
Any idea what its IC50 is? The compound is Cn1ncc2ccc(-c3n[nH]c4c3Cc3sc(-c5ccc(CN6CCOCC6)cc5)cc3-4)cc21
< 1 nM

* * *

System: MV4-11 human acute myeloid leukemia cell with FLT3-ITD mutation
Assay: MV4-11 cell proliferation assay (CellTiter 96)
Assay type: cell-based
Conditions: Homo sapiens, MV4-11, 72 h, MV4-11 cells, 72 hours treatment, CellTiter96; read-out: anti-proliferation activity MV4-11 (FLT3-ITD), IC50 ranking
pIC50: −log10 of the molar value.
Readout label: pIC50

Please provide the recorded pIC50 for Cn1ncc2ccc(-c3n[nH]c4c3Cc3sc(-c5ccc(C(=O)N6CCCCC6)cc5)cc3-4)cc21 , tested on MV4-11 human acute myeloid leukemia cell with FLT3-ITD mutation.
7.00 to 7.52

Please provide the recorded pIC50 for Cn1ncc2ccc(-c3n[nH]c4c3Cc3sc(-c5cccc(C(=O)N6CCOCC6)c5)cc3-4)cc21 , tested on MV4-11 human acute myeloid leukemia cell with FLT3-ITD mutation.
> 7.52

Please provide the recorded pIC50 for Cc1n[nH]c2cc(-c3n[nH]c4c3Cc3sc(-c5ccc(CN6CCOCC6)cc5)cc3-4)ccc12 , tested on MV4-11 human acute myeloid leukemia cell with FLT3-ITD mutation.
6.52 to 7.00

* * *

Target: FLT3 kinase (Homo sapiens, UniProt P36888)
Construct: purchased SignalChem
Sequence (P36888 27-993): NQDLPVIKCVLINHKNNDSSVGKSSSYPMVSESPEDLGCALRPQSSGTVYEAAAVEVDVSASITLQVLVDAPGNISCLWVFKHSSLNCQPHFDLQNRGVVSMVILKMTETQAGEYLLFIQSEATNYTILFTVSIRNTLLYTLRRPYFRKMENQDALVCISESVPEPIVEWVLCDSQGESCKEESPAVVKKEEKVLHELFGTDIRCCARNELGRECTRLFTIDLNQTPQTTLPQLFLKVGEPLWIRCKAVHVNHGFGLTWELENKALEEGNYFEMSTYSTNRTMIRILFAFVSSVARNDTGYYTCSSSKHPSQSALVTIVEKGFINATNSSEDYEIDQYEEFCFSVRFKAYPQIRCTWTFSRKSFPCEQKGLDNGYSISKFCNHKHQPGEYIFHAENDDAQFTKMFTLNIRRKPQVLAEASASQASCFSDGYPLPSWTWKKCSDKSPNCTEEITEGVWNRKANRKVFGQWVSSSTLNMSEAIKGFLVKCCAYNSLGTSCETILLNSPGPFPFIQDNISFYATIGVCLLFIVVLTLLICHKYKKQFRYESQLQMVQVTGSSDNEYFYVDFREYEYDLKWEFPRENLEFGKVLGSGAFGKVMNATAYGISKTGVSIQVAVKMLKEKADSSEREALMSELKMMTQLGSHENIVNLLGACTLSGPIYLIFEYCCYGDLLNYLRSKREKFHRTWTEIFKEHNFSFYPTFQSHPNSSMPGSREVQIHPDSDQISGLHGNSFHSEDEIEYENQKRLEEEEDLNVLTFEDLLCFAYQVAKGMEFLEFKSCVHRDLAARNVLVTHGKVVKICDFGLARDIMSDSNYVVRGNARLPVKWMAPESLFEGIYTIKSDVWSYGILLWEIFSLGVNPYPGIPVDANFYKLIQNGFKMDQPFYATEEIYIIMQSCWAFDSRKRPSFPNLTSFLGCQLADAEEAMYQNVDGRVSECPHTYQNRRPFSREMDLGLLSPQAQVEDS
Assay: FLT3 kinase assay (AlphaScreen)
Format: biochemical
Conditions: read-out: Ranking of IC50 values, FLT3
pIC50: −log10 of the molar value.
Readout label: pIC50

1. Cn1ncc2ccc(-c3n[nH]c4c3Cc3sc(-c5ccc(CN6CCOCC6)c(F)c5F)cc3-4)cc21
8.00 to 9.00

Moving on to the next molecule.
Please provide the recorded pIC50 for CC1C(=O)N(C)CCN1Cc1ccc(-c2cc3c(s2)Cc2c(-c4ccc5cnn(C)c5c4)n[nH]c2-3)cc1 (stereo not shown) , tested on FLT3 kinase (Homo sapiens, UniProt P36888).
8.00 to 9.00

Values compiled from patent US12448394B2.
